The reported measurements were obtained from patent US20230312601A1.

System: CYP 3A4 mRNA
PROTOCOL NOTES: CYP3A4 Induction Assay (qPCR, human hepatocytes)
Type: in vitro ADME
PROTOCOL CONDITIONS: 10 μM compound, relative to rifampicin 10 μM
READOUT KIND: CYP3A4 % of positive control (%)

> print(dat)
                              smiles.string   system.name                      readout.kind  assay.value
1  CO[C@@H](C)c1c(Nc2ccc([C@H](N(C)C(=O)C3CCN(C(=O)[C@@H](O)CO)CC3)C(F)(F)F)cc2)cnc2sc(C)nc12  CYP 3A4 mRNA  CYP3A4 % of positive control (%)        (5) %

###

SYSTEM NAME: human MALT-1 protein (Homo sapiens (Human))
Sequence (Q9UDY8 whole entry): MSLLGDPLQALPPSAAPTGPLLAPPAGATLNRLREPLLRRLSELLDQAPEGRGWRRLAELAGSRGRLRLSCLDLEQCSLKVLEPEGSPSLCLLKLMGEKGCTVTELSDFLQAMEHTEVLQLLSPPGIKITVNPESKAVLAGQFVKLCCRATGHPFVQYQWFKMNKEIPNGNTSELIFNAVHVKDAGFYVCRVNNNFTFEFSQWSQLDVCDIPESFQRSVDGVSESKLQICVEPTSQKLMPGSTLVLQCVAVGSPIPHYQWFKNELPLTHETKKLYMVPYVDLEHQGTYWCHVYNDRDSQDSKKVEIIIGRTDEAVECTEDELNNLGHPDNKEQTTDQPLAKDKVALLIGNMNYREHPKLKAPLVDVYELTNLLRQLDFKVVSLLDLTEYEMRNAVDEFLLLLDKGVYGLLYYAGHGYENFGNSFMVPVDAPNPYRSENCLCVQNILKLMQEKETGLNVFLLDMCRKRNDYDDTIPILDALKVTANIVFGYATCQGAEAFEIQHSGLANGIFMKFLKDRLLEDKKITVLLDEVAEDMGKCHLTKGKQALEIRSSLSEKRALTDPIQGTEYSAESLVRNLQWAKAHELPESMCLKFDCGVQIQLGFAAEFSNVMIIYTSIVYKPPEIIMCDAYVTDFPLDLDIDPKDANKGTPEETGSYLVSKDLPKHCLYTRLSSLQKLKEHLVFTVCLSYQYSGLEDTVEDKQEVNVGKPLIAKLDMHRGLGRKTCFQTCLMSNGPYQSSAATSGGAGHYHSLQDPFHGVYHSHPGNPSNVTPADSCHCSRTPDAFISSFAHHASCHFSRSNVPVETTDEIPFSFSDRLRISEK
PROTOCOL NOTES: MALT-1 Biochemical Assay (Quench-FRET enzyme assay)
PROTOCOL CONDITIONS: human MALT-1 6 nM, substrate 2 μM, 40 min preincubation
READOUT KIND: EC50 (nM)

Here is how some compounds turned out for EC50.
> print(dat)
                                   compound                               system.name  assay.value
1  CO[C@@H](c1c(Nc2ccc([C@H](N(C)C(=O)C3CCS(=O)(=O)CC3)C(F)(F)F)cc2)cnc2sc(C)nc12)C(F)F [Example 5]  human MALT-1 protein (Homo sapiens (Human))           77
2  CO[C@@H](C)c1c(Nc2ccc([C@H](N(C)C(=O)C3CCN(C(=O)[C@@H](O)CO)CC3)C(F)(F)F)cc2)cnc2sc(C)nc12 [Example 30]  human MALT-1 protein (Homo sapiens (Human))           82

P. CO[C@@H](c1c(Nc2ccc([C@H](N(C)C(=O)C3CCN(C(=O)CO)CC3)C(F)(F)F)cc2)cnc2sc(C)nc12)C(F)F [Example 32]
Q. CO[C@H](c1c(Nc2ccc([C@H](N(C)C(=O)C3CCN(C(C)=O)CC3)C(F)(F)F)cc2)cnc2sc(C)nc12)C(F)F [Example 18]
R. CO[C@@H](C)c1c(Nc2ccc([C@H](N(C)C(=O)C3CCN(C(=O)[C@H](O)CO)CC3)C(F)(F)F)cc2)cnc2sc(C)nc12 [Example 27]
Sort the 3 compounds by EC50; largest first, smallest last. List labels; respect the requested ordering.
Q, P, R

###

System: CYP3A4 mRNA
PROTOCOL NOTES: CYP3A4 Induction Assay (qPCR, human hepatocytes)
Assay type: in vitro ADME
PROTOCOL CONDITIONS: cryopreserved human hepatocytes (plated), 10 μM compound, mRNA fold over vehicle (0.1% DMSO)
READOUT KIND: fold induction at 1 day, 10 µM

Here is how some compounds turned out for fold induction at 1 day, 10 µM.
> print(dat)
                              smiles.string  system.name  assay.value
1  CO[C@@H](C)c1c(Nc2ccc([C@H](N(C)C(=O)C3CCN(C(=O)CO)CC3)C(F)(F)F)cc2)cnc2sc(C)nc12  CYP3A4 mRNA         1.38
2  CO[C@@H](c1c(Nc2ccc([C@H](N(C)C(=O)C3CCS(=O)(=O)CC3)C(F)(F)F)cc2)cnc2sc(C)nc12)C(F)F  CYP3A4 mRNA         1.77
3  CO[C@@H](C)c1c(Nc2ccc([C@H](N(C)C(=O)C3CCN(C(C)=O)CC3)C(F)(F)F)cc2)cnc2sc(C)nc12  CYP3A4 mRNA        0.985

P. CO[C@@H](C)c1c(Nc2c(F)cc([C@H](N(C)C(=O)C3CCS(=O)(=O)CC3)C(F)(F)F)cc2F)cnc2sc(C)nc12
Q. CO[C@@H](c1c(Nc2ccc([C@@H](C(F)F)N(C)C(=O)C3CCS(=O)(=O)CC3)cc2)cnc2sc(C)nc12)C(F)F
R. CO[C@H](c1c(Nc2ccc([C@@H](C(F)F)N(C)C(=O)C3CCN(C(=O)CO)CC3)cc2)cnc2sc(C)nc12)C(F)F
# rank by fold induction at 1 day, 10 µM, ascending (min first) List labels; respect the requested ordering.
P, R, Q
